- Tested on: platelet aggregation by collagen
- Procedure Summary: inhibiting action on platelet aggregation by collagen (COLLAGEN TEST), plasma of orally treated rats
- Format: in vivo, Wistar rats
- Test Settings: Rattus norvegicus, 100 mg/kg oral, single dose, 3 hours after treatment, relative to control, read-out: Percentage inhibition of platelet aggregation (collagen test)
Attribute Measured: inhibition at 100 mg/kg (%)
# output: bare number, implied unit %

Example cases with answers are listed next.
[
  {
    "Compound": "Clc1ccccc1CN1CCc2sccc2C1 [Reference compound A, reference compound]",
    "inhibition at 100 mg/kg [%]": 80.1
  },
  {
    "Compound": "N#Cc1ccccc1CN1CCc2sccc2C1 [Reference compound B, reference compound]",
    "inhibition at 100 mg/kg [%]": 78.8
  },
  {
    "Compound": "N#Cc1ccccc1CN1CCC2SC(=O)C=C2C1 (stereo not drawn)",
    "inhibition at 100 mg/kg [%]": 89.4
  },
  {
    "Compound": "CC(c1ccccc1Cl)N1CCC2SC(=O)C=C2C1 (stereo not drawn)",
    "inhibition at 100 mg/kg [%]": 88
  },
  {
    "Compound": "O=C1C=C2CN(Cc3ccccc3[N+](=O)[O-])CCC2S1 (stereo not drawn)",
    "inhibition at 100 mg/kg [%]": 88.7
  }
]

Query block: Recorded inhibition at 100 mg/kg for CCC(c1ccccc1Cl)N1CCC2SC(=O)C=C2C1 (stereo not drawn) , please?
Result block: 89.2
